# experimental.system: LecB (Pseudomonas aeruginosa, UniProt Q9HYN5)
# Sequence (Q9HYN5 entry or part of it): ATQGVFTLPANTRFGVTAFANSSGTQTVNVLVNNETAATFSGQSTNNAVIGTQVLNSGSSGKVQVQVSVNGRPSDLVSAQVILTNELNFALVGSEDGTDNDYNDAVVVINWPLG
# method: biochemical
# Type: binding
# run.conditions: IC50 relative to Me-α-Man; below 1 = stronger ligand than Me-α-Man
measured.parameter: rIC50 (MeMan)
Give bare numbers.

# annotated cases, reported rIC50 (MeMan) shown
Task: Provide the documented rIC50 (MeMan) with LecB (Pseudomonas aeruginosa, UniProt Q9HYN5) as the system for CO[C@H]1O[C@H](CNC(=O)/C=C/c2ccc3c(c2)OCO3)[C@@H](O)[C@H](O)[C@@H]1O [11o]
Result: 0.15

Task: Now consider CO[C@H]1O[C@H](CNC(=O)/C=C/c2cccc([N+](=O)[O-])c2)[C@@H](O)[C@H](O)[C@@H]1O [11f] and answer again.
Result: 0.25

Task: Now consider CO[C@H]1O[C@H](CNC(=O)/C=C/c2ccccc2[N+](=O)[O-])[C@@H](O)[C@H](O)[C@@H]1O [11c] and answer again.
Result: 0.35

Task: Now consider CO[C@H]1O[C@H](CNC(=O)c2ccc([N+](=O)[O-])cc2)[C@@H](O)[C@H](O)[C@@H]1O [11r] and answer again.
Result: 0.94

Task: Now consider CO[C@H]1O[C@H](CNC(=O)/C=C/c2ccc(Cl)cc2)[C@@H](O)[C@H](O)[C@@H]1O [11l] and answer again.
Result: 0.22

Task: Now consider CO[C@H]1O[C@H](CNS(=O)(=O)c2ccc(C)cc2)[C@@H](O)[C@H](O)[C@@H]1O [10b] and answer again.
Result: 0.31

Task: Now consider CO[C@H]1O[C@H](CNC(=O)/C=C/c2ccccc2C)[C@@H](O)[C@H](O)[C@@H]1O [11e] and answer again.
Result: 0.29

Continuing:
Task: Provide the documented rIC50 (MeMan) with LecB (Pseudomonas aeruginosa, UniProt Q9HYN5) as the system for CO[C@H]1O[C@H](CNC(=O)/C=C/c2ccc([N+](=O)[O-])cc2)[C@@H](O)[C@H](O)[C@@H]1O [11i]
Result: 0.49

###

# experimental.system: LecB (Pseudomonas aeruginosa, UniProt Q9HYN5)
# method: biochemical
# Format: binding
# run.conditions: IC50 relative to Me-α-Man; below 1 = stronger ligand than Me-α-Man
measured.parameter: rIC50 (MeMan)
One number for each entry.

# annotated cases, reported rIC50 (MeMan) shown
Task: Please look up its rIC50 (MeMan): CO[C@H]1O[C@H](CNC(=O)/C=C/c2ccc(N)cc2)[C@@H](O)[C@H](O)[C@@H]1O [11j]
Result: 0.24

Task: Now consider CO[C@H]1O[C@H](CNS(=O)(=O)c2ccc([N+](=O)[O-])cc2)[C@@H](O)[C@H](O)[C@@H]1O [10d] and answer again.
Result: 0.21

Task: Now consider COc1ccc(/C=C/C(=O)NC[C@H]2O[C@H](OC)[C@@H](O)[C@@H](O)[C@@H]2O)cc1OC [11n] and answer again.
Result: 0.13

Task: Now consider CO[C@H]1O[C@H](CNC(=O)c2ccc3ccccc3c2)[C@@H](O)[C@H](O)[C@@H]1O [11t] and answer again.
Result: 0.54

Task: Now consider CC1OC(CNC(=O)/C=C/c2ccccc2)C(O)C(O)[C@@H]1O (stereo partly shown) and answer again.
Result: 0.1

Task: Now consider CO[C@H]1O[C@H](CNS(=O)(=O)c2ccccc2)[C@@H](O)[C@H](O)[C@@H]1O [10a] and answer again.
Result: 0.09

Task: Now consider CO[C@H]1O[C@H](CNS(=O)(=O)c2ccc(Br)cc2)[C@@H](O)[C@H](O)[C@@H]1O [10c] and answer again.
Result: 0.12

Task: Now consider COc1ccc(/C=C/C(=O)NC[C@H]2O[C@H](OC)[C@@H](O)[C@@H](O)[C@@H]2O)cc1 [11h] and answer again.
Result: 0.3

Task: Now consider CO[C@H]1O[C@H](CNS(=O)(=O)c2c(C(C)C)cc(C(C)C)cc2C(C)C)[C@@H](O)[C@H](O)[C@@H]1O [10f] and answer again.
Result: 0.05

Continuing:
Task: Please look up its rIC50 (MeMan): CO[C@H]1O[C@H](CNC(=O)/C=C/c2ccccc2N)[C@@H](O)[C@H](O)[C@@H]1O [11d]
Result: 0.24

###

# experimental.system: LecB (Pseudomonas aeruginosa)
# method: biochemical
# Type: binding
# run.conditions: titration of reporter ligand with LecB, fluorescence polarization; read-out: EC50
pEC50: −log10 of the molar value.
measured.parameter: pEC50

Task: Please look up its pEC50: O=C1OC2(c3ccc(O)cc3Oc3cc(O)ccc32)c2ccc(NC(=S)NCCO[C@H]3O[C@H](CO)[C@@H](O)[C@H](O)[C@@H]3O)cc21 [reporter ligand 5]
Result: < 4.80

###

# experimental.system: LecB (Pseudomonas aeruginosa)
# method: biochemical
pIC50: −log10 of the molar value.
Note to self: values exactly at 4 are T. So pIC50 at or above 4 is T, below is F.

Example results:
Task: Decide: is the reported value of pIC50 for CO[C@H]1O[C@H](CNC(=O)/C=C/c2ccc(N)cc2)[C@@H](O)[C@H](O)[C@@H]1O [11j] equal to or greater than 4?
Result: T

Task: Now consider CO[C@H]1O[C@H](CNC(=O)/C=C/c2ccc3c(c2)OCO3)[C@@H](O)[C@H](O)[C@@H]1O [11o] and answer again.
Result: T

Task: Now consider CO[C@H]1O[C@H](CNC(=O)c2ccc([N+](=O)[O-])cc2)[C@@H](O)[C@H](O)[C@@H]1O [11r] and answer again.
Result: F

Continuing:
Task: Decide: is the reported value of pIC50 for CO[C@H]1O[C@H](CNS(=O)(=O)c2ccc(Br)cc2)[C@@H](O)[C@H](O)[C@@H]1O [10c] equal to or greater than 4?
Result: T

Where do the numbers come from? From patent US9371351B2.
